- test-system: insulin-degrading enzyme (recombinant human IDE) (human), P14735
- test-context: modification not given
property-name: pKi
Give bare numbers, as −log10 of the molar value.

Q: Reported pKi, binder FRY [4-fluorophenylalanine] : ____
Result: 5.15
